- Tested on: Nanoluciferase (engineered Oplophorus gracilirostris luciferase)
- test_details: Primary Nanoluciferase (NLuc) qHTS assay for identification of artifact compounds. (AID 1845222);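 note: NLuc secreted into diluted conditioned medium of S16 cells; 0% = DMSO and -100% = no enzyme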
- details: NLuc-conditioned medium, Nano-Glo luminescence, 5 min; series mostly up to 54.1 µM
The source made the active and inactive calls. Calls come from the whole dose curve; as a rule, active = well fitted inhibition curve with a large enough effect; inconclusive = small, poorly fitted or top-dose-only effect; inactive = flat fitted curve, though single readings scatter.

compound	assay_target	activity, negative = inhibition
C[C@H]1C(=O)N2c3ccccc3[C@@]3(O)C[C@@H]4C(=O)N[C@](C)(c5nc6ccccc6c(=O)n54)N1[C@@H]23	Nanoluciferase (engineered Oplophorus gracilirostris luciferase)	inactive
CC(C)c1c2cc(-c3ccnc(NC4CCC(NC5CCOCC5)CC4)n3)ccc2nn1C (configuration not stated)	Nanoluciferase (engineered Oplophorus gracilirostris luciferase)	inactive
COC(C(=O)N1Cc2[nH]nc(NC(=O)c3ccc(N4CCN(C)CC4)cc3)c2C1)c1ccccc1 (configuration not stated)	Nanoluciferase (engineered Oplophorus gracilirostris luciferase)	inactive
O=C(Nc1nc2ccccc2n1CCc1ccccc1)c1ccccc1	Nanoluciferase (engineered Oplophorus gracilirostris luciferase)	inactive
CCOC(=O)c1sc(NC(=O)[C@H](C(C)C)n2c(=O)[nH]c3ccccc3c2=O)nc1C	Nanoluciferase (engineered Oplophorus gracilirostris luciferase)	inactive
CC(=O)O[C@@H](CO[C@@H]1O[C@H](CO)[C@H](O)[C@H](O)[C@H]1O)[C@]1(C)C=C2CC[C@@H]3C(C)(C)[C@@H](O)CC[C@@]3(C)[C@@H]2CC1	Nanoluciferase (engineered Oplophorus gracilirostris luciferase)	inactive
CCCn1c(=O)c2[nH]c(-c3ccc(OCC(=O)O)cc3)nc2n(CCC)c1=O	Nanoluciferase (engineered Oplophorus gracilirostris luciferase)	inactive
CCCOc1ccc(-c2nc(OC)c3ccccc3n2)cc1	Nanoluciferase (engineered Oplophorus gracilirostris luciferase)	inactive
CS(=O)(=O)N(CC(=O)NCC1CC1)c1cc(C(F)(F)F)ccc1Cl	Nanoluciferase (engineered Oplophorus gracilirostris luciferase)	inactive
COc1cc(Nc2nc3ccccc3nc2NS(=O)(=O)c2ccc(NC(=O)c3ccc(OC)c(C)c3)cc2)cc(OC)c1	Nanoluciferase (engineered Oplophorus gracilirostris luciferase)	inactive
CC#CC(=O)N1CCC[C@H]1c1nc(-c2ccc(C(=O)Nc3ccccn3)cc2)c2c(N)nccn12	Nanoluciferase (engineered Oplophorus gracilirostris luciferase)	inactive
C[C@@H]1C(=O)O[C@H]2[C@H](O)C34[C@H]5C[C@@H](C(C)(C)C)C36[C@@H](OC(=O)[C@@H]6O)O[C@@]4(C(=O)O5)[C@@]12O (some centres not stated)	Nanoluciferase (engineered Oplophorus gracilirostris luciferase)	inactive
CCS(=O)(=O)N1CCN(c2ccc(Nc3ncc(C(N)=O)c(NC4CC4)n3)cc2)CC1	Nanoluciferase (engineered Oplophorus gracilirostris luciferase)	inactive
CC1=CC(=O)C2(OC3OC(C)C(O)C(OC(=O)/C=C/c4ccccc4)C3O)C=COC(OC3OC(CO)C(O)C(O)C3O)C12 (configuration not stated)	Nanoluciferase (engineered Oplophorus gracilirostris luciferase)	inactive
COc1ccc(/C=C\C(=O)O)c(O[C@@H]2O[C@H](CO)[C@@H](O)[C@H](O)[C@H]2O)c1	Nanoluciferase (engineered Oplophorus gracilirostris luciferase)	inactive
CC(=O)OC[C@@]12C(=O)C[C@@H](C)[C@]3(C[C@@H](c4ccoc4)O[C@H]3OC(C)=O)[C@H]1CCC[C@]21CO1	Nanoluciferase (engineered Oplophorus gracilirostris luciferase)	inactive
C=C1CCC2C(C(C)(C)O)CCC2(C)CC(O)C(=C)CCC1O (configuration not stated)	Nanoluciferase (engineered Oplophorus gracilirostris luciferase)	inactive

###

Measured activity change, negative = cytotoxicity of individual entries
- System: Hek293T
- test_details: Primary qHTS to identify gynecologic anti-cancer compounds using libraries of approved drugs and bioactive compounds (AID 1345084); note: nearly all actives have a fitted effect of over 55% in size; for activity change, negative = cytotoxicity: % is set by controls: 0 for no effect and ±100 for the full control effect
- details: Gynecologic cancer cell panel viability, ATPlite luminescence, 48 h, control line for the selectivity index; series mostly up to 57.5 µM
- Excerpt: National Center for Advancing Translational Sciences [NCATS] Assay Overview: Chemotherapeutic drug responses vary from cancer to cancer and from patient to patient. […] ATPlite is a luminescence based assay reliant on the conversion of a luciferase substrate to light in the presence of ATP. As a cytotoxic compound will suppress growth and decrease the number of cells, the concentration of ATP will decrease, and less light signal will be detected in the well. […]
Inconclusive results are not listed. Activity calls are given as the source filed them. Calls follow the shape of the dose curve; as a rule, active = well fitted cell-killing curve with a large enough effect; inconclusive = small, poorly fitted or top-dose-only effect, or effect the other way; inactive = flat fitted curve, though single readings scatter. *1 amine or outer side, *2 acyl side, *3 side chain or, on linkers, in order; H or OH if unused. Where a SMILES comes first, the peptide text is derived from it. [ ]: non-standard residue; d: D form. X4 = CC(C)=CCc1cc(C(O)C(N[*:1])C(=O)[*:2])ccc1O

molecule	activity change, negative = cytotoxicity
C/C=C(\C)C(=O)O[C@@H]1CC2[C@@H](CC=C3C[C@@H](O[C@H]4C[C@H](OC)[C@H](O[C@H]5C[C@H](OC)[C@H](O[C@@H]6O[C@H](C)[C@@H](O[C@H]7C[C@H](OC)[C@H](O[C@@H]8O[C@H](CO)[C@@H](O)[C@H](O)[C@H]8O)[C@@H](C)O7)[C@H](OC)[C@H]6O)[C@@H](C)O5)[C@@H](C)O4)CC[C@@]32C)[C@@]2(O)CC[C@H](C(C)=O)[C@@]12C (some centres not stated)	-2.04% [at 6.55 µM] (inactive)
C[C@@H]1O[C@@H](O[C@H]2[C@@H](OC(=O)[C@]34CCC(C)(C)CC3C3=CCC5[C@@]6(C)C[C@H](O)[C@H](O[C@@H]7O[C@H](C(=O)O)[C@@H](O)[C@H](O)[C@H]7O)[C@@](C)(C(=O)O)C6CC[C@@]5(C)[C@]3(C)CC4)OC[C@H](O)[C@@H]2O)[C@H](O)[C@H](O)[C@H]1O[C@@H]1OC[C@@H](O)[C@H](O)[C@H]1O (some centres not stated)	-0.464% [at 11.6 µM] (inactive)
CC1(C)CC[C@]2(C(=O)O[C@@H]3O[C@H](CO)[C@@H](O)[C@H](O)[C@H]3O)CC[C@]3(C)C(=CCC4[C@@]5(C)CC[C@H](O[C@@H]6O[C@H](C(=O)O)[C@@H](O)[C@H](O[C@@H]7O[C@H](CO)[C@H](O)[C@H](O)[C@H]7O)[C@H]6O)C(C)(C)C5CC[C@]43C)C2C1 (some centres not stated)	7.67% [at 11.6 µM] (inactive)
CC(C)=CCc1cc(C(O)C2NC(=O)CNC(=O)C(Cc3c[nH]c4ccccc34)NC(=O)C3CCCN3C(=O)CNC(=O)C(C(C)C)NC(=O)CNC2=O)ccc1O (configuration not stated) (cyclo(G[X4]GVGPW); configuration not given here)	-0.92% [at 11.6 µM] (inactive)
C[C@@H]1O[C@@H](O[C@H]2[C@H](O[C@H]3[C@H](O[C@H]4CC[C@@]5(C)C(CC[C@]6(C)C5CC=C5[C@@H]7CC(C)(C)C[C@@H](O)[C@]7(C)CC[C@]56C)[C@@]4(C)CO)O[C@H](C(=O)O)[C@@H](O)[C@@H]3O)OC[C@H](O)[C@@H]2O)[C@H](O)[C@H](O)[C@H]1O (some centres not stated)	-7.13% [at 11.6 µM] (inactive)
C[C@@H]1CC[C@]2(C(=O)O[C@@H]3O[C@H](CO)[C@@H](O)[C@H](O)[C@H]3O)CC[C@]3(C)C(=CCC4[C@@]5(C)C[C@@H](O)[C@H](O)[C@@](C)(C(=O)O[C@H]6[C@H](O)C[C@@]7(C)C(CC[C@]8(C)C7CC=C7[C@H]9[C@](C(=O)O[C@@H]%10O[C@H](CO)[C@@H](O)[C@H](O)[C@H]%10O)(CC[C@@H](C)[C@@]9(C)O)CC[C@]78C)[C@@]6(CO)C(=O)O)C5CC[C@]43C)[C@@H]2[C@]1(C)O (some centres not stated)	2.04% [at 6.55 µM] (inactive)
CC1OC(OC2C(C)OC(OC3C(O)C(CO)OC(O[C@H]4CC[C@@]5(C)C(CC[C@]6(C)C5CC=C5C7[C@@H](C)[C@H](C)CC[C@]7(C(=O)O)CC[C@]56C(=O)O)C4(C)C)C3O)C(O)C2O)C(O)C(O)C1O (some centres not stated)	-7.85% [at 11.6 µM] (inactive)

###

- System: Tov-21-G
- test_details: Primary qHTS to identify gynecologic anti-cancer compounds using libraries of approved drugs and bioactive compounds (AID 1345084); note: nearly all actives have a fitted effect of over 55% in size
- details: Gynecologic cancer cell panel viability, ATPlite luminescence, 48 h; series mostly up to 57.5 µM
Records with an inconclusive call do not appear. Calls of active or inactive are those of the source. Calls come from the whole dose curve; as a rule, active = well fitted cell-killing curve with a large enough effect; inconclusive = small, poorly fitted or top-dose-only effect, or effect the other way; inactive = flat fitted curve, though single readings scatter.
Possible outcomes: active, inactive

molecule	class_name
COc1cc(/C=C/C=O)cc(OC)c1O[C@@H]1O[C@H](CO)[C@@H](O)[C@H](O)[C@H]1O	inactive
C[C@H]1CC[C@@]2(OC1)O[C@H]1CC3C4CC[C@H]5C[C@@H](O)[C@H](O)C[C@]5(C)C4=CC(=O)[C@]3(C)[C@H]1[C@@H]2C (some centres undefined)	inactive
CC1CCC2C(C(=O)O)=COC(O[C@@H]3O[C@H](CO)[C@@H](O)[C@H](O)[C@H]3O)C12 (some centres undefined)	inactive
C=C1CCC2C(C)(C)C(O)CCC2(C)C1CCC(C)CCOC(C)=O (centres undefined)	inactive
C=C1C(=O)O[C@H](CCC)[C@H]1C(=O)O	inactive
COc1ccc2nc(S(=O)(=O)Cc3ncc(C)c(OC)c3C)[nH]c2c1	inactive
Cc1ccc(S(=O)(=O)Nc2ccccc2N2CCCCC2)s1	inactive
CC[C@@H](N)CNc1ccnc(-c2cc(-c3cnn(C)c3)ccc2O)n1	active
CC(=O)OC[C@@]12C(=O)C[C@@H](C)[C@]3(C[C@@H](c4ccoc4)O[C@H]3OC(C)=O)[C@H]1CCC[C@]21CO1	inactive

This collection of values is drawn from PubChem BioAssay (NCATS).
